Test system: M. suipneumoniae HK(2)
Test: MIC against mycoplasma in vitro
Type: cell-based
Settings: Mesomycoplasma hyopneumoniae, 144 h; M. suipneumoniae HK(2); 6 days, 37° C.; read-out: MIC
MEASUREMENT LABEL: MIC

INSERT INTO results (compound, measured_value) VALUES
  ('C/C(=C\c1ncc(-c2ccccc2)s1)C[C@@H]1OC[C@H](C[C@@H]2O[C@H]2[C@@H](C)[C@H](C)O)[C@@H](O)[C@H]1O [Example 29, 2-(1-Normon-2-yl)-5-phenylthiazole A]', '> 10 mg/L'),
  ('C/C(=C\c1ncc(-c2ccc([S+](C)[O-])cc2)o1)C[C@@H]1OC[C@H](C[C@@H]2O[C@H]2[C@@H](C)[C@H](C)O)[C@@H](O)[C@H]1O (stereo partly drawn) [Example 11]', '0.25 mg/L'),
  ('C/C(=C\c1ncc(CCCCCCCC(=O)O)o1)C[C@@H]1OC[C@H](C[C@@H]2O[C@H]2[C@@H](C)[C@H](C)O)[C@@H](O)[C@H]1O [Example 12]', '> 10 mg/L');

* * *

System: Strep. agalactiae SPA1
Assay: MIC against veterinary bacteria in vitro
Details: Streptococcus agalactiae, SPA1, 18 h
MIC for assorted molecules
MEASUREMENT LABEL: MIC (mg/L)

INSERT INTO measurements (molecule_smiles, measurement_label, unit, measured_value) VALUES
  ('C/C(=C\c1ncc(-c2ccc(Br)cc2)o1)C[C@@H]1OC[C@H](C[C@@H]2O[C@H]2[C@@H](C)[C@H](C)O)[C@@H](O)[C@H]1O', 'MIC', 'mg/L', 0.625),
  ('C/C(=C\c1ncc(-c2ccc(C(=O)O)cc2)o1)C[C@@H]1OC[C@H](C[C@@H]2O[C@H]2[C@@H](C)[C@H](C)O)[C@@H](O)[C@H]1O', 'MIC', 'mg/L', 40),
  ('COC(=O)CCCCCCCc1cnc(/C=C(\C)C[C@@H]2OC[C@H](C[C@@H]3O[C@H]3[C@@H](C)[C@H](C)O)[C@@H](O)[C@H]2O)o1', 'MIC', 'mg/L', 5);

* * *

Tested on: M. suipneumoniae JF 435
Experiment: MIC against mycoplasma in vitro
Format: cell-based
Details: Mesomycoplasma hyopneumoniae, JF435, 144 h; M. suipneumoniae JF 435; 6 days, 37° C.; read-out: MIC
MIC for assorted compounds
MEASUREMENT LABEL: MIC (µg/mL)

INSERT INTO assay_data (compound, unit, operator_symbol, measured_value) VALUES
  ('C/C(=C\c1ncc(-c2ccc(Br)cc2)o1)C[C@@H]1OC[C@H](C[C@@H]2O[C@H]2[C@@H](C)[C@H](C)O)[C@@H](O)[C@H]1O [Example 18]', 'µg/mL', '=', 0.5),
  ('COC(=O)CCCCCCCc1cnc(/C=C(\C)C[C@@H]2OC[C@H](C[C@@H]3O[C@H]3[C@@H](C)[C@H](C)O)[C@@H](O)[C@H]2O)o1 [Example 7]', 'µg/mL', '>', 10),
  ('C/C(=C\c1ncc(-c2ccc([S+](C)[O-])cc2)o1)C[C@@H]1OC[C@H](C[C@@H]2O[C@H]2[C@@H](C)[C@H](C)O)[C@@H](O)[C@H]1O (stereo partly drawn) [Example 11]', 'µg/mL', '=', 0.25),
  ('C/C(=C\c1ncc(CCCCCCCC(=O)O)o1)C[C@@H]1OC[C@H](C[C@@H]2O[C@H]2[C@@H](C)[C@H](C)O)[C@@H](O)[C@H]1O [Example 12]', 'µg/mL', '>', 10),
  ('COC(=O)c1ccc(-c2cnc(/C=C(\C)C[C@@H]3OC[C@H](C[C@@H]4O[C@H]4[C@@H](C)[C@H](C)O)[C@@H](O)[C@H]3O)o2)cc1 [Example 16]', 'µg/mL', '=', 0.5),
  ('C/C(=C\c1ncc(-c2cccc(C#N)c2)o1)C[C@@H]1OC[C@H](C[C@@H]2O[C@H]2[C@@H](C)[C@H](C)O)[C@@H](O)[C@H]1O [Example 5]', 'µg/mL', '=', 0.1);

* * *

Tested on: Staph. aureus Oxford
Experiment: MIC against human bacteria in vitro
Format: cell-based
Conditions: Staphylococcus aureus; Staph. aureus Oxford; 5% chocolated horse blood agar, 18 hours; read-out: MIC
MIC for assorted compounds
MEASUREMENT LABEL: MIC (µg/mL)

INSERT INTO assay_data (compound, assayed_target, unit, measured_value) VALUES
  ('C/C(=C/c1ncc(-c2ccccc2)o1)C[C@@H]1OC[C@H](C[C@@H]2O[C@H]2[C@@H](C)[C@H](C)O)[C@@H](O)[C@H]1O', 'Staph. aureus Oxford', 'µg/mL', 25),
  ('CSc1cccc(-c2cnc(/C=C(\C)C[C@@H]3OC[C@H](C[C@@H]4O[C@H]4[C@@H](C)[C@H](C)O)[C@@H](O)[C@H]3O)o2)c1', 'Staph. aureus Oxford', 'µg/mL', 4),
  ('C/C(=C\c1cc(-c2ccccc2)no1)C[C@@H]1OC[C@H](C[C@@H]2O[C@H]2[C@@H](C)[C@H](C)O)[C@@H](O)[C@H]1O', 'Staph. aureus Oxford', 'µg/mL', 64),
  ('C/C(=C\c1ncc(Cc2ccccc2)o1)C[C@@H]1OC[C@H](C[C@@H]2O[C@H]2[C@@H](C)[C@H](C)O)[C@@H](O)[C@H]1O', 'Staph. aureus Oxford', 'µg/mL', 8),
  ('C/C(=C\c1ncc(-c2cccc([S+](C)[O-])c2)o1)C[C@@H]1OC[C@H](C[C@@H]2O[C@H]2[C@@H](C)[C@H](C)O)[C@@H](O)[C@H]1O (some centres unmarked)', 'Staph. aureus Oxford', 'µg/mL', 4);

* * *

System: E. coli NCTC 10418
Assay: MIC against human bacteria in vitro
Format: cell-based
Details: Escherichia coli, NCTC10418; E. coli NCTC 10418; agar with 5% chocolated horse blood, 18 hours, 37° C.; read-out: MIC
MIC for assorted compounds
MEASUREMENT LABEL: MIC

INSERT INTO results (molecule_smiles, measurement_label, measured_value) VALUES
  ('COc1ccc(-c2cnc(/C=C(\C)C[C@@H]3OC[C@H](C[C@@H]4O[C@H]4[C@@H](C)[C@H](C)O)[C@@H](O)[C@H]3O)o2)cc1', 'MIC', '> 100 µg/mL'),
  ('C/C(=C\c1cc(C)on1)C[C@@H]1OC[C@H](C[C@@H]2O[C@H]2[C@@H](C)[C@H](C)O)[C@@H](O)[C@H]1O', 'MIC', '> 128 µg/mL'),
  ('C/C(=C\c1ncc(-c2ccc(S(=O)(=O)N(C)C)cc2)o1)C[C@@H]1OC[C@H](C[C@@H]2O[C@H]2[C@@H](C)[C@H](C)O)[C@@H](O)[C@H]1O', 'MIC', '> 64 µg/mL'),
  ('COC(=O)c1ccc(-c2cnc(/C=C(\C)C[C@@H]3OC[C@H](C[C@@H]4O[C@H]4[C@@H](C)[C@H](C)O)[C@@H](O)[C@H]3O)o2)cc1', 'MIC', '> 64 µg/mL'),
  ('C/C(=C\c1ncc(-c2ccc(Br)cc2)o1)C[C@@H]1OC[C@H](C[C@@H]2O[C@H]2[C@@H](C)[C@H](C)O)[C@@H](O)[C@H]1O', 'MIC', '> 128 µg/mL'),
  ('C/C(=C\c1ncc(-c2cccc([N+](=O)[O-])c2)o1)C[C@@H]1OC[C@H](C[C@@H]2O[C@H]2[C@@H](C)[C@H](C)O)[C@@H](O)[C@H]1O', 'MIC', '> 128 µg/mL'),
  ('C/C(=C\c1ncc(CCCCCCCCO)o1)C[C@@H]1OC[C@H](C[C@@H]2O[C@H]2[C@@H](C)[C@H](C)O)[C@@H](O)[C@H]1O', 'MIC', '> 128 µg/mL');

* * *

Test system: M. suipneumoniae HK(2)
Assay: MIC against mycoplasma in vitro
Assay type: cell-based
Settings: Mesomycoplasma hyopneumoniae, 144 h; M. suipneumoniae HK(2); 6 days, 37° C.; read-out: MIC
MIC for assorted molecules
MEASUREMENT LABEL: MIC (µg/mL)

INSERT INTO assay_data (molecule_smiles, operator_symbol, measured_value) VALUES
  ('C/C(=C\c1nc(C)c(-c2ccccc2)o1)C[C@@H]1OC[C@H](C[C@@H]2O[C@H]2[C@@H](C)[C@H](C)O)[C@@H](O)[C@H]1O', '>', 10),
  ('C/C(=C\c1ncc(-c2ccc(C=O)cc2)o1)C[C@@H]1OC[C@H](C[C@@H]2O[C@H]2[C@@H](C)[C@H](C)O)[C@@H](O)[C@H]1O', '=', 0.5),
  ('C/C(=C\c1cc(-c2ccccc2)no1)C[C@@H]1OC[C@H](C[C@@H]2O[C@H]2[C@@H](C)[C@H](C)O)[C@@H](O)[C@H]1O', '=', 10),
  ('C/C(=C\c1ncc(-c2ccc([N+](=O)[O-])cc2)o1)C[C@@H]1OC[C@H](C[C@@H]2O[C@H]2[C@@H](C)[C@H](C)O)[C@@H](O)[C@H]1O', '=', 0.25),
  ('C/C(=C\c1ncc(-c2ccccc2)o1)C[C@@H]1OC[C@H](C[C@@H]2O[C@H]2[C@@H](C)[C@H](C)O)[C@@H](O)[C@H]1O', '=', 1);

The reported measurements were obtained from patent US5041567A.
